- Test system: NCI-H522 lung
- MEASUREMENT_DESCRIPTION: NCI-60 one-dose screen, 48 h
- MEASUREMENT_SETUP: 10 µM unless noted
The panel holds about 83,000 compounds, 20% with a hit somewhere; the sample as a whole holds those more often. The source made the active and inactive calls. The calls were made as follows: active = growth percent below 10; inactive = the rest.
Outcome codes: TRUE = active, FALSE = inactive

- MOLECULE: "CCCCNc1nnc2n(Cc3ccccc3)c(=O)c3c4c(sc3n12)CCCC4"
  CLASS_LABEL: "FALSE"
- MOLECULE: "Cc1ccc2nc(NC(=O)CSc3nc(-c4ccccc4)c(C#N)c4nnnn34)sc2c1"
  CLASS_LABEL: "FALSE"
- MOLECULE: "CCN(CC)Cc1cc(Nc2ccnc3cc(Cl)ccc23)ccc1O"
  CLASS_LABEL: "FALSE"
- MOLECULE: "Ic1ccccc1I"
  CLASS_LABEL: "FALSE"
- MOLECULE: "Cc1n[nH]c2ccc(Br)cc2c1=O"
  CLASS_LABEL: "FALSE"
- MOLECULE: "O=C(Nc1ccc(Br)cc1)C1=NCCCCN1"
  CLASS_LABEL: "FALSE"
- MOLECULE: "CC(=O)OC(c1ccccc1)C1CCOC1=O (stereo not given)"
  CLASS_LABEL: "FALSE"
- MOLECULE: "Cc1nc2sc(C(=O)Nc3cccc(Br)c3C)c(N)c2cc1C(O)c1ccccc1 (stereo not given)"
  CLASS_LABEL: "TRUE"
- MOLECULE: "CS(=O)(=O)Nc1cc(-c2ccc3ncc(C#N)c(Nc4ccc(F)c(Cl)c4)c3c2)cnc1Cl"
  CLASS_LABEL: "TRUE"
- MOLECULE: "COc1ccc(/C=C/C(=O)c2cc(OC)c(OC)c(OC)c2)cc1OCC(=O)Nc1nc2ccc(OC(F)(F)F)cc2s1"
  CLASS_LABEL: "TRUE"
- MOLECULE: "C=C(C)[C@@H]1CC[C@]2(C(N)=O)CC[C@]3(C)[C@H](CC[C@@H]4[C@@]5(C)CC[C@H](OCCC#N)C(C)(C)[C@@H]5CC[C@]43C)[C@@H]12"
  CLASS_LABEL: "FALSE"
- MOLECULE: "Cc1cccc(N2CCC(=O)NC2=S)c1"
  CLASS_LABEL: "FALSE"
- MOLECULE: "C=Cc1cnc(Nc2ccc(OC)cc2)nc1NCCCNC(=O)C1CCC1"
  CLASS_LABEL: "FALSE"
- MOLECULE: "O=C(Nc1cnc(Nc2ccc(N3CCOCC3)nc2)nc1Oc1ccc(C(F)(F)F)cc1)c1ccncc1"
  CLASS_LABEL: "FALSE"
- MOLECULE: "COCCn1cc(-c2csc(-c3c[nH]c4ccc(Br)cc34)n2)c2cccnc21"
  CLASS_LABEL: "TRUE"
- MOLECULE: "FC(F)(F)c1ccc(Cn2cc(CSc3nc4ccccc4s3)nn2)cc1"
  CLASS_LABEL: "FALSE"
- MOLECULE: "COc1cc(/C=C2\\CN(S(=O)(=O)c3ccccc3)C/C(=C\\c3cc(CN4CCCCC4)c(O)c(OC)c3)C2=O)cc(CN2CCCCC2)c1O"
  CLASS_LABEL: "TRUE"
- MOLECULE: "CC1C(/C=N/NC(N)=S)C(C#N)(C#N)C1(C#N)C#N (stereo not given)"
  CLASS_LABEL: "FALSE"
- MOLECULE: "S=c1nc2oc(-c3ccccc3)c(-c3ccccc3)c2c(/N=C\\c2ccco2)[nH]1"
  CLASS_LABEL: "FALSE"
- MOLECULE: "CC1=C2[C@@H](CC1)[C@]1(C)O[C@@](c3ccccc3)(C[C@H]1OC(=O)CO)[C@H]2OC(=O)/C=C/c1ccccc1"
  CLASS_LABEL: "FALSE"

Attribution: PubChem BioAssay (NCI)
